Target: CCR9 (Homo sapiens, UniProt P51686)
Construct: CCR9-expressing cells (such as a T cell line MOLT-4 cells)
Sequence (P51686 1-369): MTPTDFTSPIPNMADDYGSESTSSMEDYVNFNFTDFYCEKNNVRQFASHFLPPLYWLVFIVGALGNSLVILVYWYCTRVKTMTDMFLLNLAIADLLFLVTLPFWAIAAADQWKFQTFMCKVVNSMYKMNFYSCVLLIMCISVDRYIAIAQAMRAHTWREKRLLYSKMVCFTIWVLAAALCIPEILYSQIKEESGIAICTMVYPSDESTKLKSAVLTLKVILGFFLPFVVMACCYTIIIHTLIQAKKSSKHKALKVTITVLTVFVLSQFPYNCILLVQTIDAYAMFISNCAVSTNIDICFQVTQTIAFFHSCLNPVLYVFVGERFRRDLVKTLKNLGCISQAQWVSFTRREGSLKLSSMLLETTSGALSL
Test: chemotaxis (conventional migration) assay and/or calcium mobilization (calcium flux) assay, TECK-stimulated MOLT-4 cells
Settings: TECK-induced migration and/or calcium signal, read-out: activity (IC50) in either or both of the chemotaxis assay and calcium mobilization assays
measuredMetric: IC50

These solved cases illustrate the format of a correct answer.
INSERT INTO assay_data (compound, targetdesc, result) VALUES
  ('COc1cccc(S(=O)(=O)Nc2ccc(Cl)cc2C(=O)c2ccccc2)c1', 'CCR9 (Homo sapiens, UniProt P51686)', '1000 to 10000 nM'),
  ('COc1ccc(-c2ccc(S(=O)(=O)Nc3ccc(Cl)cc3C(=O)c3ccccc3)cc2)cc1', 'CCR9 (Homo sapiens, UniProt P51686)', '1000 to 10000 nM'),
  ('N#Cc1ccc(S(=O)(=O)Nc2ccc(Cl)cc2C(=O)c2ccccc2)cc1', 'CCR9 (Homo sapiens, UniProt P51686)', '100 to 1000 nM'),
  ('CCCCc1ccc(S(=O)(=O)Nc2ccc(Cl)cc2C(=O)c2ccccc2)cc1', 'CCR9 (Homo sapiens, UniProt P51686)', '100 to 1000 nM'),
  ('COC(=O)CCc1ccc(S(=O)(=O)Nc2ccc(Cl)cc2C(=O)c2ccccc2)cc1', 'CCR9 (Homo sapiens, UniProt P51686)', '< 100 nM'),
  ('CC(=O)Nc1ccc(S(=O)(=O)Nc2ccc(Cl)cc2C(=O)c2ccccc2)cc1Cl', 'CCR9 (Homo sapiens, UniProt P51686)', '100 to 1000 nM'),
  ('CCc1ccc(S(=O)(=O)Nc2ccc(Cl)cc2C(=O)c2ccccc2)cc1', 'CCR9 (Homo sapiens, UniProt P51686)', '< 100 nM'),
  ('COc1ccc(S(=O)(=O)Nc2cc(Br)ccc2C(=O)c2ccccc2)cc1', 'CCR9 (Homo sapiens, UniProt P51686)', '100 to 1000 nM'),
  ('N#Cc1cccc(S(=O)(=O)Nc2ccc(Cl)cc2C(=O)c2ccccc2)c1', 'CCR9 (Homo sapiens, UniProt P51686)', '100 to 1000 nM'),
  ('O=C(c1ccccc1)c1cc(Cl)ccc1NS(=O)(=O)c1cccc(C(F)(F)F)c1', 'CCR9 (Homo sapiens, UniProt P51686)', '1000 to 10000 nM');

API: the following record is the query input.
**Q:** Name the value of IC50 reported for CS(=O)(=O)c1ccc(S(=O)(=O)Nc2ccc(Cl)cc2C(=O)c2ccccc2)cc1 when tested on CCR9 (Homo sapiens, UniProt P51686).
**A:** < 100 nM

----------
Reported IC50 values for a set of compounds
biological target: CCR9 (Homo sapiens); construct: CCR9-expressing cells (such as a T cell line MOLT-4 cells); assay: chemotaxis (conventional migration) assay and/or calcium mobilization (calcium flux) assay, TECK-stimulated MOLT-4 cells; settings: TECK-induced migration and/or calcium signal, read-out: activity (IC50) in either or both of the chemotaxis assay and calcium mobilization assays

INSERT INTO results (smilesentry, measuredmetric, result) VALUES
  ('O=C(c1ccccc1)c1cc(Cl)ccc1NS(=O)(=O)c1ccc(Nc2cccnc2)cc1', 'IC50', '100 to 1000 nM'),
  ('CCCCOc1ccc(S(=O)(=O)Nc2ccc(Cl)cc2C(=O)c2ccccc2)cc1', 'IC50', '1000 to 10000 nM'),
  ('O=C(c1ccccc1)c1cc(Cl)ccc1NS(=O)(=O)c1ccc2c(c1)CCO2', 'IC50', '100 to 1000 nM'),
  ('O=C(c1ccccc1)c1cc(Cl)ccc1NS(=O)(=O)c1ccc(-c2cnco2)cc1', 'IC50', '< 100 nM'),
  ('COc1ccc(S(=O)(=O)Nc2ccc(Br)cc2C(=O)c2ccccc2)cc1', 'IC50', '< 100 nM');

API: the following record is the query input.
**Q:** Name the value of IC50 reported for O=C(c1ccccc1)c1cc(Cl)ccc1NS(=O)(=O)c1ccc(Cl)cc1Cl when tested on CCR9 (Homo sapiens).
**A:** 1000 to 10000 nM

----------
target: CCR9 (Homo sapiens, UniProt P51686); construct: CCR9-expressing cells (such as a T cell line MOLT-4 cells); assay: chemotaxis (conventional migration) assay and/or calcium mobilization (calcium flux) assay, TECK-stimulated MOLT-4 cells; settings: TECK-induced migration and/or calcium signal, read-out: activity (IC50) in either or both of the chemotaxis assay and calcium mobilization assays
pIC50: −log10 of the molar value.
Reported pIC50 values for a set of compounds

These solved cases illustrate the format of a correct answer.
INSERT INTO assay_data (compound, targetdesc, result) VALUES
  ('O=C(c1ccccc1)c1cc(Cl)ccc1NS(=O)(=O)c1ccc(C#Cc2ccccc2)cc1', 'CCR9 (Homo sapiens, UniProt P51686)', '6.00 to 7.00'),
  ('O=C(c1ccccc1)c1cc(Cl)ccc1NS(=O)(=O)c1ccc(-c2cccs2)cc1', 'CCR9 (Homo sapiens, UniProt P51686)', '6.00 to 7.00'),
  ('COc1ccc(S(=O)(=O)Nc2ccc(OC)cc2C(=O)c2ccccc2)cc1', 'CCR9 (Homo sapiens, UniProt P51686)', '5.00 to 6.00');

**Q:** For the compound C=Cc1ccc(S(=O)(=O)Nc2ccc(Cl)cc2C(=O)c2ccccc2)cc1 , give its measured pIC50 value.
**A:** > 7.00

**Q:** For the compound O=C(c1ccccc1)c1cc(Cl)ccc1NS(=O)(=O)c1ccc(I)cc1 , give its measured pIC50 value.
**A:** > 7.00

----------
Target: CCR9 (Homo sapiens, UniProt P51686)
Construct: CCR9-expressing cells (such as a T cell line MOLT-4 cells)
Sequence (P51686 1-369): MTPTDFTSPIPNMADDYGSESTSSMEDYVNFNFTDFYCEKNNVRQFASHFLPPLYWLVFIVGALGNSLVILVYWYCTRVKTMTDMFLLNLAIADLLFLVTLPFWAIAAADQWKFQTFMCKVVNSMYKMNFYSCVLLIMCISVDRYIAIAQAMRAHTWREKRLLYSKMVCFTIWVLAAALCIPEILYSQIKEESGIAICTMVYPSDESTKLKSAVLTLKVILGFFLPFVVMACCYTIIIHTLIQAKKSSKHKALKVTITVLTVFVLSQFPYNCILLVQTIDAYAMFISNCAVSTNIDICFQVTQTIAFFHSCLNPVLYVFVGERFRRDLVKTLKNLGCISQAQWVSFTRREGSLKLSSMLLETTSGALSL
Assay: chemotaxis (conventional migration) assay and/or calcium mobilization (calcium flux) assay, TECK-stimulated MOLT-4 cells
Details: TECK-induced migration and/or calcium signal, read-out: activity (IC50) in either or both of the chemotaxis assay and calcium mobilization assays
Description: MOLT-4 cells were obtained from the American Type Culture Collection (Manassas, Va.) and cultured in RPMI tissue culture medium supplemented with 10% fetal calf serum (FCS) in a humidified 5% CO2 incubator at 37° C. […] Conventional migration assay was used to determine the efficacy of potential receptor antagonists in blocking migration mediated through CCR9. […] The degree of inhibition was determined by comparing migration signals between compound-treated and untreated cells. […]
pIC50: −log10 of the molar value.
Reported pIC50 values for a set of molecules

INSERT INTO results (molecule, result) VALUES
  ('CCC(C)(C)c1ccc(S(=O)(=O)Nc2ccc(Cl)cc2C(=O)c2ccccc2)cc1', '> 7.00');

**Q:** For the molecule CC(C)c1ccc(S(=O)(=O)Nc2ccc(Cl)cc2C(=O)c2ccccc2)cc1 , give its measured pIC50 value.
**A:** 6.00 to 7.00

**Q:** For the molecule COc1ccc(S(=O)(=O)Nc2ccc(Cl)cc2C(=O)c2ccccc2F)cc1 , give its measured pIC50 value.
**A:** 5.00 to 6.00

**Q:** For the molecule CC(C)Oc1ccc(S(=O)(=O)Nc2ccc(Cl)cc2C(=O)c2ccccc2)cc1 , give its measured pIC50 value.
**A:** > 7.00

**Q:** For the molecule O=C(c1ccccc1)c1cc(Cl)ccc1NS(=O)(=O)c1cccc(F)c1 , give its measured pIC50 value.
**A:** 6.00 to 7.00

**Q:** For the molecule O=C(c1ccccc1)c1cc(Cl)ccc1NS(=O)(=O)c1ccc(-n2cccn2)cc1 , give its measured pIC50 value.
**A:** 6.00 to 7.00

**Q:** For the molecule O=C(c1ccccc1)c1cc(Cl)ccc1NS(=O)(=O)c1ccc(Cl)c(Cl)c1 , give its measured pIC50 value.
**A:** 5.00 to 6.00

**Q:** For the molecule O=C(c1ccccc1)c1cc(Cl)ccc1NS(=O)(=O)c1ccc(C(F)(F)F)cc1 , give its measured pIC50 value.
**A:** > 7.00

**Q:** For the molecule CC(=O)c1ccc(S(=O)(=O)Nc2ccc(Cl)cc2C(=O)c2ccccc2)cc1 , give its measured pIC50 value.
**A:** > 7.00

**Q:** For the molecule CC(=O)c1ccc(S(=O)(=O)Nc2ccc(Br)cc2C(=O)c2ccccc2)cc1 , give its measured pIC50 value.
**A:** > 7.00

**Q:** For the molecule O=C(c1ccccc1)c1cc(Br)ccc1NS(=O)(=O)c1ccc(-c2cocn2)cc1 , give its measured pIC50 value.
**A:** > 7.00

**Q:** For the molecule O=C(c1ccccc1)c1cc(Cl)ccc1NS(=O)(=O)c1ccc(F)cc1 , give its measured pIC50 value.
**A:** 6.00 to 7.00

**Q:** For the molecule CC(C)(C)c1ccc(S(=O)(=O)Nc2cc(Cl)ccc2C(=O)c2ccccc2)cc1 , give its measured pIC50 value.
**A:** > 7.00

**Q:** For the molecule O=C(c1ccccc1)c1cc(Cl)ccc1NS(=O)(=O)c1ccccc1F , give its measured pIC50 value.
**A:** 5.00 to 6.00

**Q:** For the molecule COc1ccc(OC)c(S(=O)(=O)Nc2ccc(Cl)cc2C(=O)c2ccccc2)c1 , give its measured pIC50 value.
**A:** 5.00 to 6.00
